// Emax lookup, one value per entry
- SUBJECT_OF_TEST: OR51E1 olfactory receptor (Homo sapiens, UniProt Q8TCB6)
- Construct: expressed in transfected cells
- Sequence (Q8TCB6 whole entry): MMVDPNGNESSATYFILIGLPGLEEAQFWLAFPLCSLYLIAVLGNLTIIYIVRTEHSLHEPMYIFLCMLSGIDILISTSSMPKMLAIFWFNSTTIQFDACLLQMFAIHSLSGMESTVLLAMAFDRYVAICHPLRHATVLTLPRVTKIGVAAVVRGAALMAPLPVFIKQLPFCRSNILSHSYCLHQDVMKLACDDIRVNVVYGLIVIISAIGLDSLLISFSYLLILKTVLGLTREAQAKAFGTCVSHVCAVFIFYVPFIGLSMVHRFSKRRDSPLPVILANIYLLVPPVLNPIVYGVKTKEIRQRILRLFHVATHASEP
- ASSAY_PROCEDURE: Butyric acid olfactory receptor antagonist cell-based dose-response vs butyric acid EC80
- DETAILS: Table 20, spiro analogues; read-out: Inhibition (%)
In your response, put the unit directly after the numeric value.

[[record]]
compound = "CC1=CC(C)C2(CCCC(C)(C)C2=O)C1 (stereo not shown)"
result = "63%"

[[record]]
compound = "CC1CCCCC12CCCCC2O (stereo not shown) [11-methylspiro[5.5]undecan-5-ol]"
result = "52%"

[[record]]
compound = "C=CCC1(C(C)C=C)CCCC(C)(C)C1=O (stereo not shown)"
result = "115%"

[[record]]
compound = "CC(=O)OC1C(C)(C)CCCC12CC(C)C(C)C2 (stereo not shown)"
result = "62%"

[[record]]
compound = "CC(=O)OC1C(C)(C)CCCC12CC=CC2C (stereo not shown)"
result = "106%"

[[record]]
compound = "CC(=O)OC1C(C)(C)CCCC12CC=CC2 (stereo not shown)"
result = "32%"

[[record]]
compound = "CC(=O)OC(C1C(C)C=C(C)CC1C)C(C)(C)C (stereo not shown)"
result = "89%"

[[record]]
compound = "COC1C(C)(C)CCC12CCCC2 (stereo not shown) [4-methoxy-3,3-dimethylspiro[4.4]nonane]"
result = "105%"

[[record]]
compound = "CC(=O)OC1C(C)(C)CCCC12CC(C)=C(C)C2 (stereo not shown)"
result = "116%"

[[record]]
compound = "CC(=O)OC1C(C)(C)CCC12CC=CC2 (stereo not shown)"
result = "107%"


// Emax lookup, key: CC1C=CCC(C)C1C(O)C(C)(C)C (stereo not shown)
31%

// Emax lookup, key: C=C(C)CC1(CC(=C)C)CCC(C)(C)C1=O
82%

// Emax lookup, key: CC(=O)OC1C(C)(C)CCCC12C(C)C=CCC2C (stereo not shown)
72%

// Emax lookup, key: C=C1C(C)(C)CCCC12CC1(C)OC1(C)C2 (stereo not shown)
37%

// Emax lookup, key: CC1CC2(CCCC(C)(C)C2O)CC1C (stereo not shown) [2,3,9,9-tetramethylspiro[4.5]decan-10-ol]
12%

// Emax lookup, key: CC1(C)CCCC2(CC=CC2)C1O (stereo not shown) [9,9-dimethylspiro[4.5]dec-2-en-10-ol]
91%

====

- SUBJECT_OF_TEST: OR51E1 olfactory receptor (Homo sapiens)
- Construct: expressed in transfected cells
- ASSAY_PROCEDURE: Butyric acid olfactory receptor antagonist cell-based dose-response vs butyric acid EC80
- DETAILS: Table 20, spiro analogues; read-out: Inhibition (%)
MEASURE_NAME: Emax (%)
Number in %, nothing else.

// known answers, use as guide
[[record]]
compound = "CC1=C(C)CC2(CCC(C)(C)C2=O)C1"
measure_name = "Emax"
unit_tag = "%"
quantitative_result = 10

[[record]]
compound = "CC(=O)OC1C(C)(C)CCCC12CC(C)(C)C(C)(C)C2 (stereo not drawn)"
measure_name = "Emax"
unit_tag = "%"
quantitative_result = 39

[[record]]
compound = "CC1C=CCC12CCCC(C)(C)C2=O (stereo not drawn) [4,9,9-trimethylspiro[4.5]dec-2-en-10-one]"
measure_name = "Emax"
unit_tag = "%"
quantitative_result = 102

[[record]]
compound = "COC1C(C)(C)CCCC12CC=CC2 (stereo not drawn)"
measure_name = "Emax"
unit_tag = "%"
quantitative_result = 33

[[record]]
compound = "CC1=CCC2(CCCCC2O)C(C(C)C)C1 (stereo not drawn)"
measure_name = "Emax"
unit_tag = "%"
quantitative_result = 144


Would you kindly look at the next entry?
// Emax lookup, key: C[C@H]1CCC[C@]2(CCCC[C@@H]2C)[C@@H]1O
54

====

- SUBJECT_OF_TEST: Olfr749 (Mus musculus)
- Construct: Flag; Rho tag
- Sequence (E9Q438 1-313): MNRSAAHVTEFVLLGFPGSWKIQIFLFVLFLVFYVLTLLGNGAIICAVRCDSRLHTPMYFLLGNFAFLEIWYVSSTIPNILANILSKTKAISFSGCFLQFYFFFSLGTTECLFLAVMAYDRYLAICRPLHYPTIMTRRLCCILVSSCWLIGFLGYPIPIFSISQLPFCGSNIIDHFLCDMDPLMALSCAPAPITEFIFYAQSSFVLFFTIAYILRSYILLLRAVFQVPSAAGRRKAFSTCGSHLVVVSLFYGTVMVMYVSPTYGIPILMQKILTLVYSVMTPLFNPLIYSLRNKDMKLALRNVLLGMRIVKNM
- ASSAY_PROCEDURE: Indole antagonist dose-response, cAMP HTRF in HEK293T, vs indole EC80
- DETAILS: Table 23
// IC50 lookup, one value per entry
Number in µM, nothing else.

// known answers, use as guide
[[record]]
compound = "C=C1CC[C@H]2O[C@]2(C)CC[C@@H]2[C@@H]1CC2(C)C"
measure_name = "IC50"
quantitative_result = 61.3

[[record]]
compound = "c1nc2c(o1)CCCCCCCCCC2"
measure_name = "IC50"
quantitative_result = 70


// IC50 lookup, key: C/C=C/C(=O)C1C(C)=CCCC1(C)C (racemic)
156

// IC50 lookup, key: CC1(C)CCC[C@]2(C)CC(=O)CC[C@@H]12 (racemic)
41.5

====

// pIC50 lookup, one value per entry
- SUBJECT_OF_TEST: Olfr739 (Mus musculus)
- Sequence (E9Q1P0 entry or part of it): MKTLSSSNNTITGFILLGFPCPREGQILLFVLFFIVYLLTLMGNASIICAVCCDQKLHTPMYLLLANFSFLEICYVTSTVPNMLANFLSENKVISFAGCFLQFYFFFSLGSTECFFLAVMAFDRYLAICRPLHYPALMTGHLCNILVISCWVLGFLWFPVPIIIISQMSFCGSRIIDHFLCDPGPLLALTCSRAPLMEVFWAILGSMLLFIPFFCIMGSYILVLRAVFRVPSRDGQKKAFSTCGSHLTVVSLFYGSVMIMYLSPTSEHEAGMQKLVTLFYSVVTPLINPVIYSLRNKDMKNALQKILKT
- ASSAY_PROCEDURE: Indole antagonist dose-response, cAMP HTRF in HEK293T, vs indole EC80
- Assay type: cell-based
- DETAILS: Table 22, first listing (r7-r45)
Scale note: pIC50 = -log10(concentration in M).

// known answers, use as guide
[[record]]
molecule = "c1nc2c(o1)CCCCCCCCCC2"
quantitative_result = 4.62

[[record]]
molecule = "CC1(C)CCC[C@]2(C)CC(=O)CC[C@@H]12 (racemic)"
quantitative_result = 4.86

[[record]]
molecule = "C=C1CC[C@H]2O[C@]2(C)CC[C@@H]2[C@@H]1CC2(C)C"
quantitative_result = 4.71


Look up pIC50 with Olfr739 (Mus musculus) for this molecule: CC(C)(C)C1CCC(=O)CC1
4.16

====

// % Remaining in human sensory tests lookup, one value per entry
- Test system: geonol malodor (earthy/moss odor) perception
- ASSAY_PROCEDURE: Sensory evaluation of geonol earthy/moss odor in iso-intense binary mixtures (glass jars)
- Assay type: in vivo, human
- DETAILS: iso-intense binary mixture
- Text: Sensory Evaluation: Five 16 oz glass jars containing either REF (geonol only), geonol only control, antagonist only, mixture of geonol and isointense antagonist, or mixture of geonol and low intensity antagonist were presented to the panelists (last four samples were randomized across panelists). […]
Marks after values point to notes of the source that are not given here.

// known answers, use as guide
[[record]]
compound = "CC(CC=O)CCCC(C)(C)O (centres unmarked) [7-hydroxy-3,7-dimethyloctanal]"
result = "39* %"

[[record]]
compound = "CC(=O)C=CC1=C(C)CCCC1(C)C"
result = "43* %"

[[record]]
compound = "CC(C)=CCCC(C)=CC=O [3,7-dimethylocta-2,6-dienal]"
result = "42* %"

[[record]]
compound = "CC1=CC(C)C(C=O)CC1 (centres unmarked) [2,4-dimethylcyclohex-3-enecarbaldehyde]"
result = "45* %"


Would you kindly look at the next entry?
// % Remaining in human sensory tests lookup, key: CCCCCC1CCCC1=O (centres unmarked) [Compound 2-pentylcyclopentan-1-one, 2-pentylcyclopentan-1-one]
78%

====

- SUBJECT_OF_TEST: Olfr741 (Mus musculus)
- Sequence (L7N1Y5 entry or part of it): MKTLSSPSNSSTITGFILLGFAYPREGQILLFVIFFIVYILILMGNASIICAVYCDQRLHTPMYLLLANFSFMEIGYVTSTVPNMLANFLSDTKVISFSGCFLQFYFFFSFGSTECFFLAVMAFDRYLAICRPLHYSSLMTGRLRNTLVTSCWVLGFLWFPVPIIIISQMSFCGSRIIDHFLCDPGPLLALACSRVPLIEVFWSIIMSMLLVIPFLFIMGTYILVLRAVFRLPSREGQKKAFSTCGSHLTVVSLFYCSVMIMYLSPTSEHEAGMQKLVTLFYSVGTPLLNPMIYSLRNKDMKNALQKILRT
- ASSAY_PROCEDURE: Indole antagonist dose-response, cAMP HTRF in HEK293T, vs indole EC80
- Assay type: cell-based
- DETAILS: Table 22, second listing of the same compounds
MEASURE_NAME: pIC50
Scale note: pIC50 = -log10(concentration in M).

[[record]]
compound = "c1nc2c(o1)CCCCCCCCCC2"
subject_of_test = "Olfr741 (Mus musculus)"
quantitative_result = 3.67

[[record]]
compound = "C=C1CC[C@H]2O[C@]2(C)CC[C@@H]2[C@@H]1CC2(C)C"
subject_of_test = "Olfr741 (Mus musculus)"
quantitative_result = 3.92


// pIC50 lookup, key: CC1(C)CCCC2(C)CC(=O)CCC12 (racemic)
3.97

====

- SUBJECT_OF_TEST: OR51E1 olfactory receptor (Homo sapiens)
- Construct: expressed in transfected cells
- ASSAY_PROCEDURE: Butyric acid olfactory receptor antagonist cell-based dose-response vs butyric acid EC80
- DETAILS: Table 20, spiro analogues
// IC50 lookup, one value per entry

// known answers, use as guide
[[record]]
molecule = "CC(=O)OC1C(C)(C)CCC12CC=CC2 (centres unmarked)"
subject_of_test = "OR51E1 olfactory receptor (Homo sapiens)"
result = "488 µM"

[[record]]
molecule = "CC1C=CCC(C)C1C(O)C(C)(C)C (centres unmarked)"
subject_of_test = "OR51E1 olfactory receptor (Homo sapiens)"
result = "321 µM"

[[record]]
molecule = "CC(=O)OC1C(C)(C)CCCC12CC=CC2C (centres unmarked)"
subject_of_test = "OR51E1 olfactory receptor (Homo sapiens)"
result = "48.5 µM"

[[record]]
molecule = "CC1=CCC2(CCCCC2O)C(C(C)C)C1 (centres unmarked)"
subject_of_test = "OR51E1 olfactory receptor (Homo sapiens)"
result = "366 µM"

[[record]]
molecule = "CC1=C(C)CC2(CCC(C)(C)C2=O)C1"
subject_of_test = "OR51E1 olfactory receptor (Homo sapiens)"
result = "198 µM"

[[record]]
molecule = "CC1CC=CCC12CCCC(C)(C)C2OC=O (centres unmarked)"
subject_of_test = "OR51E1 olfactory receptor (Homo sapiens)"
result = "44.4 µM"

[[record]]
molecule = "CC1CC2(CCCC(C)(C)C2O)CC1C (centres unmarked) [2,3,9,9-tetramethylspiro[4.5]decan-10-ol]"
subject_of_test = "OR51E1 olfactory receptor (Homo sapiens)"
result = "120 µM"

[[record]]
molecule = "C=CCC1(OC)C(C)CCCC1C (centres unmarked)"
subject_of_test = "OR51E1 olfactory receptor (Homo sapiens)"
result = "100 µM"


// IC50 lookup, key: CC(=O)OC1C(C)(C)CCCC12CC(C)C(C)C2 (centres unmarked)
51.4 µM

// IC50 lookup, key: CC(=O)OC1C(C)(C)CCCC12CC=CC2 (centres unmarked)
90.3 µM

// IC50 lookup, key: CC1=CC(C)C2(CCCC(C)(C)C2=O)C1 (centres unmarked)
110 µM
